// data source = PubChem BioAssay AID401

Target: Tyrosine-protein phosphatase non-receptor type 7 (Homo sapiens)
Test: inhibition of HePTP dephosphorylation activity – biochemical, DiFMUP fluorescence, recombinant human enzyme (AID 401)
Details: recombinant PTPN7, DiFMUP fluorescence; at 50 µM; enzyme 55 ng/mL; 25 °C; DTT 5 mM; hits give high values
experimental-endpoint: inhibition (%)
The reply should contain only the number, in %.

Quick check: inhibition of "O=C(O)c1ccc(O)c(C=Nc2ccc3oc(-c4cccc(Cl)c4Cl)nc3c2)c1" ? 61

Quick check: inhibition of "Cc1ccc(N=Cc2cc(C(=O)O)ccc2O)c(O)c1" ? 42

Quick check: inhibition of CC1=C(C)OC(Nc2ccc(Cl)cc2C(=O)O)C=C1 (centres undefined) ? 25

Quick check: inhibition of "O=C(O)c1ccc(O)c(C=Nc2ccc3oc(-c4ccccc4)nc3c2)c1" ? 31
